Reported pIC50 values for a set of compounds
molecular target: LRRK2 phospho-Ser935 (Homo sapiens, UniProt Q5S007); construct: expressed in transfected cells; test: Cellular LRRK2 phosphoserine 935 dephosphorylation spotblot assay in SH-SY5Y cells stably expressing 3xFlag-LRRK2; assay type: cell-based; settings: pS935 dephosphorylation, SH-SY5Y cells with stable expression of LRRK2; read-out: IC50 cellular (pS935)
Sequence (Q5S007 whole entry): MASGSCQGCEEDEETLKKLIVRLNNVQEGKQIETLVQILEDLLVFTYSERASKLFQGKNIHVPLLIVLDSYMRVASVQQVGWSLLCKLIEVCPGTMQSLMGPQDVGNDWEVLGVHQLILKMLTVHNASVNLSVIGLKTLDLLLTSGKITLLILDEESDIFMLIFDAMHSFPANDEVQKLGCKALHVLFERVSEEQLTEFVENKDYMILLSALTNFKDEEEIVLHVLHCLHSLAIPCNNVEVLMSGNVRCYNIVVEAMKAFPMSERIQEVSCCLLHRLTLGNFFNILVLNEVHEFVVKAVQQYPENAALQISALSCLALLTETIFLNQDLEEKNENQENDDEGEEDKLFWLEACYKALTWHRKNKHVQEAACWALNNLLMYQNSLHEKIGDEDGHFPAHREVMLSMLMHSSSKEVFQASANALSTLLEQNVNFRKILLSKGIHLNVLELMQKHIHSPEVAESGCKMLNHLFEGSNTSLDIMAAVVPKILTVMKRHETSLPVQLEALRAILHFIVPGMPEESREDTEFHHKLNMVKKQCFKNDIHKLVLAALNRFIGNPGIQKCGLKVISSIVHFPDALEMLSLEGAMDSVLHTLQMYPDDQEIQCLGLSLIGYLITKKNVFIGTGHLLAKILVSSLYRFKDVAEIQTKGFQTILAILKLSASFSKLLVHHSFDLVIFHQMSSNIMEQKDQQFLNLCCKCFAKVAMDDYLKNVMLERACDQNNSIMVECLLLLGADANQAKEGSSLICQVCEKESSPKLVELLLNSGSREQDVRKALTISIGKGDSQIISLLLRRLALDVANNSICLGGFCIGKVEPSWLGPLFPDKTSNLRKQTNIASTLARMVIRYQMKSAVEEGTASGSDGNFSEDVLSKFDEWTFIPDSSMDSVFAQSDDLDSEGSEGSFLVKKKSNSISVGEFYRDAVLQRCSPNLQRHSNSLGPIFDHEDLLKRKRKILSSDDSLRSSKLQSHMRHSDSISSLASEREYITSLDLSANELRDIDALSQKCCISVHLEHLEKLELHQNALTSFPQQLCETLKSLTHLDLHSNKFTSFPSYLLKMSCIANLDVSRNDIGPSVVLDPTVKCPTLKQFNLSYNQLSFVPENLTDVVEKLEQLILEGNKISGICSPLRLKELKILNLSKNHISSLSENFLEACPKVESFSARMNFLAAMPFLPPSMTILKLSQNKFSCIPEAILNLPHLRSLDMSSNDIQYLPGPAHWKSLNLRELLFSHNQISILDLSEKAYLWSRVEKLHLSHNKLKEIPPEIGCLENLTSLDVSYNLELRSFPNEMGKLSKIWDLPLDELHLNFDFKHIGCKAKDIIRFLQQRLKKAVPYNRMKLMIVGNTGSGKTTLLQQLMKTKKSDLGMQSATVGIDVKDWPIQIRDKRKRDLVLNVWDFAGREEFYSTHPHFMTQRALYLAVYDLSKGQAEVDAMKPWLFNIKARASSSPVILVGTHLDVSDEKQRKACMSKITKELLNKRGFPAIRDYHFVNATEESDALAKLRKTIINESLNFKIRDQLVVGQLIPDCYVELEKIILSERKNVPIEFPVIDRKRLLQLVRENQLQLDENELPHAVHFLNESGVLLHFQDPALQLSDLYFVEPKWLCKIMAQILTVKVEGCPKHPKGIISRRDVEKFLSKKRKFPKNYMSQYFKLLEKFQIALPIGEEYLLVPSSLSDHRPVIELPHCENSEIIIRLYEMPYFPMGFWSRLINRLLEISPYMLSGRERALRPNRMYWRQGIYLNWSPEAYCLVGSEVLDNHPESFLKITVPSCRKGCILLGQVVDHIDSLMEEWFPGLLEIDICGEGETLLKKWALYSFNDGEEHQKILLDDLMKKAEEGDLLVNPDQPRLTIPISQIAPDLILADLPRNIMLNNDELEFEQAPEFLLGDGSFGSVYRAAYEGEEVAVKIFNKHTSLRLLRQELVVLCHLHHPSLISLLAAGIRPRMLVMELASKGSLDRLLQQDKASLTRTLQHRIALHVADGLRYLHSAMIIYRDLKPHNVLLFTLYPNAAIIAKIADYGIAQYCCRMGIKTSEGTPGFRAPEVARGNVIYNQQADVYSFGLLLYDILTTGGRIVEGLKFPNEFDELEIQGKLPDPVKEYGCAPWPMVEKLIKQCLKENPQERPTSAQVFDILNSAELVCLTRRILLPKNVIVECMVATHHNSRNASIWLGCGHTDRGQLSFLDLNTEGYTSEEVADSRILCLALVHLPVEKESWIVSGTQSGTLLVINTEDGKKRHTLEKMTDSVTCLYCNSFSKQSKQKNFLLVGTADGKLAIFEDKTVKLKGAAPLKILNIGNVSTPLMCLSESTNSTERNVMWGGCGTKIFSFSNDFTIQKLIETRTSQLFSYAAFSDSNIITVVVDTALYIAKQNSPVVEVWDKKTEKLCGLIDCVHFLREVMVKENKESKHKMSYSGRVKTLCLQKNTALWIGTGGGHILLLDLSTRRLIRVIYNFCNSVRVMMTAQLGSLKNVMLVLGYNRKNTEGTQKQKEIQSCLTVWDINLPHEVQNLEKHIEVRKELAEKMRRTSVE
pIC50: −log10 of the molar value.
assay metric: pIC50

> print(dat)
                                item.smiles                           subject.of.test  assay.metric  sign  endpoint.result
1  CN(C)S(=O)(=O)c1ccc2c(c1)/C(=C/c1cc3c([nH]1)CCCC3)C(=O)N2  LRRK2 phospho-Ser935 (Homo sapiens, UniProt Q5S007)         pIC50     =             6.37
2     Cc1cc(C)c(/C=C2\C(=O)Nc3ccccc32)[nH]1  LRRK2 phospho-Ser935 (Homo sapiens, UniProt Q5S007)         pIC50     <             5.70
3  Nc1nc(Nc2ccc(S(N)(=O)=O)cc2)nn1C(=S)Nc1c(F)cccc1F  LRRK2 phospho-Ser935 (Homo sapiens, UniProt Q5S007)         pIC50     =             8.93
4  CCN(CC)CCNC(=O)c1c(C)[nH]c(/C=C2\C(=O)Nc3ccc(Cl)cc32)c1C  LRRK2 phospho-Ser935 (Homo sapiens, UniProt Q5S007)         pIC50     =             6.50
5  COc1cc(N2CCOCC2)ccc1Nc1ncc(F)c(Nc2ccccc2NS(C)(=O)=O)n1  LRRK2 phospho-Ser935 (Homo sapiens, UniProt Q5S007)         pIC50     =             7.36
6  O=C1Nc2ccc(Br)cc2/C1=C/c1cc2c([nH]1)CCCC2  LRRK2 phospho-Ser935 (Homo sapiens, UniProt Q5S007)         pIC50     <             5.70
7        O=C1Nc2ccc3ncsc3c2/C1=C/c1cnc[nH]1  LRRK2 phospho-Ser935 (Homo sapiens, UniProt Q5S007)         pIC50     =             5.88

====

List of pIC50 cellular (pS935) values.
target: LRRK2 phospho-Ser935 (Homo sapiens); construct: expressed in transfected cells; test: Cellular LRRK2 phosphoserine 935 dephosphorylation spotblot assay in SH-SY5Y cells stably expressing 3xFlag-LRRK2; type: cell-based; conditions: pS935 dephosphorylation, SH-SY5Y cells with stable expression of LRRK2
assay metric: pIC50 cellular (pS935)

> print(dat)
                                item.smiles  sign  endpoint.result
1  COc1cc(N2CCOCC2)ccc1Nc1ncc(F)c(Nc2ccccc2NS(C)(=O)=O)n1     =             7.36
2        O=C1Nc2ccc3ncsc3c2/C1=C/c1cnc[nH]1     =             5.88
3  Nc1nc(Nc2ccc(S(N)(=O)=O)cc2)nn1C(=S)Nc1c(F)cccc1F     =             8.93
4     Cc1cc(C)c(/C=C2\C(=O)Nc3ccccc32)[nH]1     <              5.7
5  O=C1Nc2ccc(Br)cc2/C1=C/c1cc2c([nH]1)CCCC2     <              5.7
